System: COLO 205 colon
test description: NCI-60 one-dose screen, 48 h
condition label: 10 µM unless noted
The panel holds about 83,000 compounds, 20% with a hit somewhere; the sample as a whole holds those more often. Calls of active or inactive are those of the source. How the source made its calls: active means growth percent below 10; inactive means the rest.
Respond using exactly one of the listed classes: 1.0 for active, 0.0 for inactive

COc1cc(C)ccc1Oc1nc(Nc2ccc(N3CCOCC3)cc2)ncc1N=Cc1cc(C(F)(F)F)cc(C(F)(F)F)c1	0.0
O=c1c2ccccc2oc2ccc(OCCCCCN3CCCCCC3)cc12	0.0
C#CCOC(=O)[C@]1(C)CCC[C@]2(C)[C@H]3C[C@H]4C(C(C)C)=C[C@]3(CC[C@H]21)[C@@H]1C(=O)CCC(=O)[C@@H]14	0.0

# lookup: test call for COc1ccc(C2CC(c3ccc(OC)cc3O)=NN2c2ccc(S(N)(=O)=O)cc2)cc1 (stereo not drawn)
0.0

For this molecule, state the assay outcome: O=C(Nc1cccc(-c2cccc(F)c2)c1)C1CCN(Cc2cccc3cccnc23)CC1
1.0

Entry CC(C)(C)c1ccc2oc(=O)n(SC(Cl)(Cl)Cl)c2c1 : call = ?
0.0

Recorded call for O=c1[nH]nc(-c2ccccc2)c2sc(NC(=S)Nc3ccc(Cl)cc3)nc12 ?
0.0

Hi, do you know how C#C[C@@]1(O)[C@@H](CO)O[C@@H](n2cnc3c(-c4ccccc4)ncnc32)[C@@H]1O came out in this test?
0.0

Could you kindly confirm the outcome this assay logged for Cc1nccc2c3ccc(OCc4cn(-c5ccccc5)nn4)cc3n(CCCc3ccccc3)c12 ?
0.0

Dear all, I need the recorded test outcome for COC(=O)CCc1n(Cc2ccc3ccccc3c2)c2ccccc2[n+]1Cc1ccc2ccccc2c1 , thank you.
1.0

Per the assay record, what outcome was assigned to C#C[C@@]1(O)[C@@H](CO)O[C@@H](n2cc(-c3ccco3)c3c(N)ncnc32)[C@@H]1O ?
0.0

Could you please tell me the result logged for COc1cc(C2=N/C(=C\c3cc4ccccc4nc3Oc3ccccc3)C(=O)N2C(=N)N)cc(OC)c1OC in this assay?
0.0

###

Test system: T-47D breast
test description: NCI-60 one-dose screen, 48 h (100 = growth as untreated, 0 = no growth, -100 = all killed)
condition label: 10 µM unless noted
About 83,000 compounds went through this panel and 20% of them were active in at least one assay; those are over-represented in the sample as a whole.
growth: recorded values
Write it as a number; the unit % goes unstated.

Answered examples (5):
COc1ccc(C2N(c3cc(OC)c(OC)c(OC)c3)C(=O)C2(F)F)cc1F (stereo not given)	65.7
C=C(C)[C@@H]1CC[C@]2(C(N)=O)CC[C@]3(C)[C@H](CC[C@@H]4[C@@]5(C)CCCNC(C)(C)[C@@H]5CC[C@]43C)[C@@H]12	55.9
C#Cc1ccccc1NC(=O)c1sc2nc3c(cc2c1N)CCCCC3	95
O=C1NN(c2ccccc2)C(c2ccc3c(c2)OCO3)N2CCC[C@@H]12 (stereo not given in full)	90.9
CCN(CC)CC#CCOC(=O)[C@]1(C)CCC[C@]2(C)[C@H]3C[C@H]4C(C(C)C)=C[C@]3(CC[C@H]21)[C@@H]1C(=O)CCC(=O)[C@@H]14	35.5

Recorded growth (molecule Cc1cccc(C)c1NCc1nnc(-c2ccco2)o1 ): 80.6

###

System: NCI/ADR-RES ovarian
test description: NCI-60 one-dose screen, 48 h (100 = growth as untreated, 0 = no growth, -100 = all killed)
condition label: 10 µM unless noted
This is part of a sample that, as a whole, favours compounds with a hit. Of some 83,000 tested, about 20% had one in any assay.
Reported growth values are given for each entry in this list.
Reply numerically in %, unit not repeated.

[2H]c1nc(Nc2ncc3cc(C(=O)N(C)C)n(C4CCCC4)c3n2)c([2H])c([2H])c1N1C([2H])([2H])C([2H])([2H])NC([2H])([2H])C1([2H])[2H]	106
CCCn1c2cc(OCc3cn(-c4ccc(Br)cc4)nn3)ccc2c2ccnc(C)c21	63.1
C=C(C)[C@@H]1CC[C@]2(C(=O)O)CC[C@]3(C)[C@H](CC[C@@H]4[C@@]5(C)C[C@@H](CC#Cc6ccc(Cl)cc6)C(=O)C(C)(C)[C@@H]5CC[C@]43C)[C@@H]12	71.7
COC(=O)c1ccc(NC(=O)CSc2nc(-c3ccc(F)cc3)nc3ccccc23)cc1	88
C=C1C(=O)O[C@H]2[C@H]1CC/C(COC(=O)c1cccnc1)=C\CC[C@@]1(C)O[C@@H]21	93.5
COc1cc(/C=C/C(=O)c2ccc(NC(=O)CSc3nnc(-c4cc(OC)c(OC)c(OC)c4)n3-c3ccccc3)cc2)cc(OC)c1OC	44.3

Now for another entry.
Form field growth, entry COc1ccc(/C=C(/C(=O)N2CCN(Cc3ccccc3)CC2)c2cc(OC)c(OC)c(OC)c2)cc1O : 71.7
